Data provenance: patent US20220411514A1

Target: T1, human Gal3 (Homo sapiens, UniProt P17931)
T1 construct: 6xHis (linker-spaced) (C); purchased AcroBio (Acro Biosystems) GA3-H5129
T1 sequence (P17931 whole entry): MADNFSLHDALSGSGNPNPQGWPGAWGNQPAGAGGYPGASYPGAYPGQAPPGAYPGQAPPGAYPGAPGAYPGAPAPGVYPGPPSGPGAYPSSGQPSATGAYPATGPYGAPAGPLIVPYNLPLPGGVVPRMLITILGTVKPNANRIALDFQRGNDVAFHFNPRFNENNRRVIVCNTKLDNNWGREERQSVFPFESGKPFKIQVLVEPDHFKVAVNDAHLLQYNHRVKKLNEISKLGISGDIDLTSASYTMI
Assay: Epitope binning, sandwich format, SPR Carterra LSA (Example 8)
Format: binding
property: epitope bin (mutual competitive binding for Gal3)

Completed entries (count: 7):
query: Give the measured epitope bin (mutual competitive binding for Gal3) for 847.13E2-mH0mL1: anti-Gal3 antibody (antibody, V domains shown) VH: EVQLQQSGPELVKPGASVKVSCKASGYSFTDYNMYWVMQSHGKSLEWIGYIDPYNDATSYSQKFTGKATLTVDKSSSTAFMHLNSLTSEDSAVYYCARWGRYEYYAMDYWGQGTSVTVSS VL: DIVMTQSPASLPVSLGQRATISCRASKSVTTSAYSYIHWYQQRPGQPPKLLIYLASNLESGVPARFSGSGSGTDFTLNIHPVEEEDAATYYCQHNRELPPTFGGGTKLEIN
result: CRD

query: Give the measured epitope bin (mutual competitive binding for Gal3) for 847.3B3: anti-Gal3 antibody (antibody, V domains shown) VH: QVQLKESGPGLVAPSQSLSITCTVSGFSLTSYGVHWIRQPPGKGLEWLGGIWAGGSTDYNSPLMSRLSITKDNSKSQVFLKMNSLQSDDTAMYYCASPPSGYDYDVFAYWGQGTLVTVSA VL: DILMTQSPASLSASVGETVTITCRASGNIHNYLAWYQQKQGKSPQLLVYSAKTLADGVPSRFSGSGSGTQFSLKIDSLQPEDFGTYYCQHFWSLFPTFGGGTKLEIK
result: CRD

query: Give the measured epitope bin (mutual competitive binding for Gal3) for 847.11D6: anti-Gal3 antibody (antibody, V domains shown) VH: EVKLQQSGPELMKPGTSMKISCKASGYSFTGYTMNWVKQSHGKNLEWIGLINPYNGGTNYNQKFRGKATLSVDKSSNTAYMELLSLTSEDSAVYYCARKDDYYGSSPYALDYWGQGTSVTVSS VL: DIVMTQSPASLAVSLGQRATISCRASESVENHVNSFMHWFQQKPGQPPKLLIYRASNLQSGIPARFSGSGSRTDFTLTINPVEADDVATYYCQQNNEVPYTFGGGTKLEIK
result: CRD

query: Give the measured epitope bin (mutual competitive binding for Gal3) for 849.1D2: anti-Gal3 antibody (antibody, V domains shown) VH: QVQLKESGPVLVAPSQSLSITCTVSGFSLSSYGVHWVRQPPGKGLEWLGVIWAGGSTDYDSALMSRLSISKDNSKSQVFLKMDSLQTDDTAMYYCAKPPYDYDGAWFAYWGQGTLVTVSA VL: DVVMTQTPKFLLVSAGDRVTITCKASQSVSSDVAWYQQKPGQSPKLLIYFASNRYTGVPDRFTGSGYGTDFTFTISTVQAEDLAVYFCQHNYISPFTFGGGTKLEIK
result: 11

query: Give the measured epitope bin (mutual competitive binding for Gal3) for 849.2D7: anti-Gal3 antibody (antibody, V domains shown) VH: QVQLQQSGPQLVRPGASVKISCKASGYSFTNYWMHWVKQRPGQGLEWIGMIDPSDSETRLNQKFKDKATLTVDKSSSTAYMQLSSPTSEDSAVYYCATGRPDYWGQGTTLTVSS VL: DIVMTQSHKFMSTSVGDRVSITCKASQDVSTAVAWYQQKPGQSPKLLIYWASTRHTGVPDRFTGSGSGTDYTLTISSVQAEDLALYYCQQHYSTPYTFGGGTKLEIK
result: 10

query: Give the measured epitope bin (mutual competitive binding for Gal3) for 847.28D1: anti-Gal3 antibody (antibody, V domains shown) VH: QVQLVETGPGLVAPSQSLSITCTVSGFSLTSYGVHWIRQSPGKGLEWLGTIWAGGSTDYNSPLMSRLSISKDNSKNQVFLKMNSLQIDDTAIYYCASPPSGYDYDVFASWGQGTLVTVSA VL: DIRMTQSPASLSASVGETVTITCRASGNIHNYLAWYHQKQGKSPQLLVYNVKTLADGVPSRFSGSGSGTQFSLKINSLQPEDFGTYYCQHFWSIFPTFGGGTKLEIK
result: CRD

query: Give the measured epitope bin (mutual competitive binding for Gal3) for 847.13E2-mH0mL2: anti-Gal3 antibody (antibody, V domains shown) VH: EVQLQQSGPELVKPGASVKVSCKASGYSFTDYNMYWVMQSHGKSLEWIGYIDPYNDATSYSQKFTGKATLTVDKSSSTAFMHLNSLTSEDSAVYYCARWGRYEYYAMDYWGQGTSVTVSS VL: DIVLTQSPATLSVTPGDSVSFSCRASQIINNNLHWYQQKSHESPRLLIRYTSQSISGIPSRFSGSGSGTDFTLSINNVETEDFGMYFCQQTNSWPLTFGAGTKLELK
result: CRD

Now for the molecule whose epitope bin (mutual competitive binding for Gal3) we want.
query: Give the measured epitope bin (mutual competitive binding for Gal3) for 847.23F11: anti-Gal3 antibody (antibody, V domains shown) VH: QVQLQQSGAELVRPGASVKLSCKASGYTFTSSWMNWVKQRPGQGLDWIGMIDPSDSETHYNQMFKDKATLTVDKSSNTAYMQLSRLTSEDSAVYYCVNSNYESGYWGQGTTLTVSS VL: DILMTQSHKFMSTSVGDRVSITCKASQDVSSVVVWYQQKPGQSPKQLIYWASTRHTGVPDRFTGSGSGTDYTLTISSVQAEDLALYYCQQHYSTPYTFGGGTKLEIK
result: CRD
